- Tested System: FPR2 (Homo sapiens)
- Sequence (P25090 1-351): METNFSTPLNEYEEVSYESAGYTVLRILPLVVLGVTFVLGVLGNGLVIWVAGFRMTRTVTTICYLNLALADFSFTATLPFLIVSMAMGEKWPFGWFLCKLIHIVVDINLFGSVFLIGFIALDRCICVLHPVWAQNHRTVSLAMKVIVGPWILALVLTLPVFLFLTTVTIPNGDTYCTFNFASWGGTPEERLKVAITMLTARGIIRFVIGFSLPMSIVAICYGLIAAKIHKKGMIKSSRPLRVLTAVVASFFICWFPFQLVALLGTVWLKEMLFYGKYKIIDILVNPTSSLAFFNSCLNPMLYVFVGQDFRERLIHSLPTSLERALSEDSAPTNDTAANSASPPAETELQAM
- Experiment Description: Change in calcium activity by peptide (Fura-2) in RBL cells overexpressing FPR2
- Condition Parameters: calcium activity (Fura-2), graded per Table 3, read-out: EC50 for [Ca^2+] FPR2
Peptide text beside a SMILES is read from it.
Could you please report measured EC50 for the items listed next?

As a guide, the following entries are already answered.
Compound	Measured Value
CCCCCCCC(=O)N[C@@H](CCCNC(=N)N)C(=O)N[C@@H](Cc1c[nH]c2ccccc12)C(=O)N[C@@H](CCCNC(=N)N)C(=O)N[C@@H](Cc1ccc(O)cc1)C(=O)N[C@@H](CCCCN)C(=O)N[C@H](C(=O)N[C@H](CCSC)C(N)=O)C(C)C [Peptide 2] (HELM PEPTIDE1{[CCCCCCCC(=O)[*:2]].R.W.R.Y.K.V.[dM].[am]}$$$$V2.0)	11 to 100 nM
CSCC[C@@H](NC(=O)[C@H](Cc1ccc(O)cc1)NC(=O)[C@H](Cc1c[nH]c2ccccc12)NC(=O)[C@H](Cc1ccc(O)cc1)NC(=O)[C@H](CCCNC(=N)N)NC(=O)[C@H](Cc1c[nH]c2ccccc12)NC(=O)[C@H](CCCNC(=N)N)NC(C)=O)C(N)=O [Peptide 78] (HELM PEPTIDE1{[ac].R.W.R.Y.W.Y.[dM].[am]}$$$$V2.0)	< 10 nM
CSCC[C@@H](NC(=O)[C@@H](NC(=O)[C@H](Cc1c[nH]c2ccccc12)NC(=O)[C@H](Cc1ccc(O)cc1)NC(=O)[C@H](CCCCN)NC(=O)[C@H](Cc1c[nH]c2ccccc12)NC(=O)[C@H](CCCCN)NC(C)=O)C(C)C)C(N)=O [Peptide 103] (HELM PEPTIDE1{[ac].K.W.K.Y.W.V.[dM].[am]}$$$$V2.0)	11 to 100 nM
CCCCCCCC(=O)N[C@@H](CCSC)C(=O)N[C@@H](CCCNC(=N)N)C(=O)N[C@@H](Cc1ccc(O)cc1)C(=O)N[C@@H](CCCCN)C(=O)N[C@H](C(=O)N[C@H](CCSC)C(N)=O)C(C)C [Peptide 16] (HELM PEPTIDE1{[CCCCCCCC(=O)[*:2]].M.R.Y.K.V.[dM].[am]}$$$$V2.0)	11 to 100 nM

Can you give me EC50 for all of these, one by one?
1. CCCC(=O)N[C@@H](Cc1c[nH]cn1)C(=O)N[C@@H](CCSC)C(=O)N[C@@H](CCCCN)C(=O)N[C@@H](Cc1ccc(O)cc1)C(=O)N[C@@H](CCCCN)C(=O)N[C@H](C(=O)N[C@H](CCSC)C(N)=O)C(C)C [Peptide 23] (HELM PEPTIDE1{[CCCC(=O)[*:2]].H.M.K.Y.K.V.[dM].[am]}$$$$V2.0)
2. CSCC[C@@H](NC(=O)[C@@H](NC(=O)[C@H](CCCNC(=N)N)NC(=O)[C@H](Cc1ccc(O)cc1)NC(=O)[C@H](CCCNC(=N)N)NC(=O)[C@H](Cc1c[nH]c2ccccc12)NC(=O)[C@@H](N)CCCNC(=N)N)C(C)C)C(N)=O [Peptide 29] (HELM PEPTIDE1{R.W.R.Y.R.V.[dM].[am]}$$$$V2.0)
3. CCCCCCCC(=O)N[C@@H](CCCNC(=N)N)C(=O)N[C@@H](CCSC)C(=O)N[C@@H](CCCNC(=N)N)C(=O)N[C@@H](Cc1ccc(O)cc1)C(=O)N[C@@H](CCCCN)C(=O)N[C@@H](Cc1ccc(O)cc1)C(=O)N[C@H](CCSC)C(N)=O [Peptide 40] (HELM PEPTIDE1{[CCCCCCCC(=O)[*:2]].R.M.R.Y.K.Y.[dM].[am]}$$$$V2.0)
4. CCCC(=O)N[C@@H](Cc1c[nH]cn1)C(=O)N[C@@H](CCSC)C(=O)N[C@@H](CCCCN)C(=O)N[C@@H](Cc1ccc(O)cc1)C(=O)N[C@@H](Cc1ccc(O)cc1)C(=O)N[C@@H](Cc1ccc(O)cc1)C(=O)N[C@H](CCSC)C(N)=O [Peptide 127] (HELM PEPTIDE1{[CCCC(=O)[*:2]].H.M.K.Y.Y.Y.[dM].[am]}$$$$V2.0)
5. CCCC(=O)N[C@@H](CCSC)C(=O)N[C@@H](CCCNC(=N)N)C(=O)N[C@@H](Cc1ccc(O)cc1)C(=O)N[C@@H](Cc1c[nH]c2ccccc12)C(=O)N[C@@H](Cc1ccc(O)cc1)C(=O)N[C@H](CCSC)C(N)=O [Peptide 87] (HELM PEPTIDE1{[CCCC(=O)[*:2]].M.R.Y.W.Y.[dM].[am]}$$$$V2.0)

Outgoing:
["< 10 nM", "< 10 nM", "11 to 100 nM", "< 10 nM", "< 10 nM"]

Can you give me EC50 for all of these, one by one?
1. CSCC[C@H](NC(C)=O)C(=O)N[C@@H](CCCNC(=N)N)C(=O)N[C@@H](Cc1ccc(O)cc1)C(=O)N[C@@H](CCCCN)C(=O)N[C@@H](Cc1ccc(O)cc1)C(=O)N[C@H](CCSC)C(N)=O [Peptide 42] (HELM PEPTIDE1{[ac].M.R.Y.K.Y.[dM].[am]}$$$$V2.0)
2. CSCC[C@@H](NC(=O)[C@@H]1CCCN1C(=O)[C@H](Cc1c[nH]c2ccccc12)NC(=O)[C@H](Cc1ccc(O)cc1)NC(=O)[C@H](CCCCN)NC(=O)[C@H](Cc1c[nH]cn1)NC(C)=O)C(N)=O [Peptide 150] (HELM PEPTIDE1{[ac].H.K.Y.W.P.[dM].[am]}$$$$V2.0)
3. CCCC(=O)N1CCC[C@H]1C(=O)N[C@@H](CCSC)C(=O)N[C@@H](CCCCN)C(=O)N[C@@H](Cc1ccc(O)cc1)C(=O)N[C@@H](CCCCN)C(=O)N[C@H](C(=O)N[C@H](CCSC)C(N)=O)C(C)C [Peptide 27] (HELM PEPTIDE1{[CCCC(=O)[*:2]].P.M.K.Y.K.V.[dM].[am]}$$$$V2.0)

Outgoing:
1. 11 to 100 nM
2. < 10 nM
3. < 10 nM

Reference source: patent US20250361268A1
